# System: MDA-MB-231
# experiment_summary: Growth inhibition of human MDA-MB-231 cells assessed as cell growth at 10 uM incubated for 48 hrs by sulforhodamine B assay relative to control
# Type: functional
# condition_notes: MDA-MB-231, 48 h, read-out: Activity
experimental_readout: growth at 10 µM (%)
# value in %; strip the unit string

The reported growth at 10 µM of the compound `CCOC(=O)c1c(C)oc2ncnc(Nc3ccc(OCc4ccc(Cl)c(Cl)c4)cc3)c12` was 84.3

The reported growth at 10 µM of the compound `Cc1oc2ncnc(Nc3cccc(F)c3)c2c1C(=O)NCCO` was 91.2

The reported growth at 10 µM of the compound `Cc1cccc(Nc2ncnc3oc(C)c(C(=O)NCCN4CCOCC4)c23)c1` was 81.8

The reported growth at 10 µM of the compound `Cc1oc2ncnc(Nc3ccccc3)c2c1C(=O)NCCO` was 75

The reported growth at 10 µM of the compound `Cc1oc2ncnc(Nc3cccc(Cl)c3)c2c1CO` was 76.5

The reported growth at 10 µM of the compound `Cc1oc2ncnc(Nc3ccc(OCc4cccc(F)c4)c(Cl)c3)c2c1C(=O)NCCO` was 26

The reported growth at 10 µM of the compound `CCOC(=O)c1c(C)oc2ncnc(Nc3ccc(OCc4cccc(C)c4)cc3)c12` was 88.6

The reported growth at 10 µM of the compound `CCCNC(=O)c1c(C)oc2ncnc(Nc3cccc(Cl)c3)c12` was 88.2

The reported growth at 10 µM of the compound `Cc1cccc(Nc2ncnc3oc(C)c(C(=O)NCCO)c23)c1` was 84.1

The reported growth at 10 µM of the compound `CCOC(=O)c1c(C)oc2ncnc(Nc3ccc(F)c(Cl)c3)c12` was 101

The reported growth at 10 µM of the compound `CCOC(=O)c1c(C)oc2ncnc(Nc3ccc(F)cc3)c12` was 86.8

###

# System: UO-31
# experiment_summary: Growth inhibition of human UO31 cells assessed as cell growth at 10 uM incubated for 48 hrs by sulforhodamine B assay relative to control
# Format: functional
# condition_notes: UO-31, 48 h, read-out: Activity
experimental_readout: growth at 10 µM (%)
# value in %; strip the unit string

The reported growth at 10 µM of the molecule `CCOC(=O)c1c(C)oc2ncnc(Nc3cccc(F)c3)c12` was 101

The reported growth at 10 µM of the molecule `CCOC(=O)c1c(C)oc2ncnc(Nc3ccc(OCc4cccc(C)c4)cc3)c12` was 101

The reported growth at 10 µM of the molecule `CCOC(=O)c1c(C)oc2ncnc(Nc3ccc(OCc4cccc(F)c4)cc3)c12` was 85

The reported growth at 10 µM of the molecule `Cc1cccc(Nc2ncnc3oc(C)c(C(=O)NCCO)c23)c1` was 86.2

The reported growth at 10 µM of the molecule `CCCNC(=O)c1c(C)oc2ncnc(Nc3cccc(Cl)c3)c12` was 72.4

The reported growth at 10 µM of the molecule `CCOC(=O)c1c(C)oc2ncnc(Nc3ccc(F)cc3)c12` was 92.4

The reported growth at 10 µM of the molecule `Cc1oc2ncnc(Nc3ccc(OCc4cccc(F)c4)c(Cl)c3)c2c1C(=O)NCCO` was 57.6

The reported growth at 10 µM of the molecule `Cc1oc2ncnc(Nc3cccc(Cl)c3)c2c1CO` was 56.9

The reported growth at 10 µM of the molecule `CCOC(=O)c1c(C)oc2ncnc(Nc3ccc(OCc4ccc(Cl)cc4)cc3)c12` was 99.5

The reported growth at 10 µM of the molecule `Cc1cccc(Nc2ncnc3oc(C)c(C(=O)NCCN4CCOCC4)c23)c1` was 75.6

The reported growth at 10 µM of the molecule `CCOC(=O)c1c(C)oc2ncnc(Nc3ccc(F)c(Cl)c3)c12` was 88.5
